Listing: MIC of selected compounds
# Tested on: Riemerella anatipestifer
# assay_setup: read-out: Minimum inhibitory concentration (MIC), strain RA-HN-1211-C, in vitro
Respond numerically; units are µg/mL and should not be typed.

// solved cases for MIC follow
- compound: "CCC(C)Oc1ccc(C=NNC(=N)NN=Cc2ccc(OC(C)CC)cc2)cc1.Cl (stereo not drawn)"
  measurement_units: "µg/mL"
  value_reported: 1.56
- compound: "CCCOc1ccc(C=NNC(=N)NN=Cc2ccc(OCCC)cc2)cc1.Cl"
  measurement_units: "µg/mL"
  value_reported: 0.39

Given the compound CCCCOc1ccc(C=NNC(=N)NN=Cc2ccc(OCCCC)cc2)cc1.Cl and test system Riemerella anatipestifer, the measured MIC is 1.56

----------
# Test system: cherry valley ducks
# test_protocol: Feeding trial (ducks)
# Type: in vivo
# assay_setup: 20 ppm in basal diet, 30 days, control 2.16
# Text: 800 1-day-old cherry valley ducks were divided into 8 groups, 100 ducks in each group. […] The compounds of IST_007 series can substantially enhance the productivity of the ducks, concluded from the results.
measurement_type: Average feed conversion efficiency
Lab note: write the figure by itself, no unit.

// solved cases for Average feed conversion efficiency follow
- compound: "CCCOc1ccc(C=NNC(=N)NN=Cc2ccc(OCCC)cc2)cc1.Cl"
  measurement_type: "Average feed conversion efficiency"
  value_reported: 2.04
- compound: "CC(C)Oc1ccc(C=NNC(=N)NN=Cc2ccc(OC(C)C)cc2)cc1.Cl"
  measurement_type: "Average feed conversion efficiency"
  value_reported: 2.03
- compound: "COc1ccc(/C=N/NC(=N)N/N=C/c2ccc(OC)cc2)cc1.Cl"
  measurement_type: "Average feed conversion efficiency"
  value_reported: 2.01
- compound: "Cl.N=C(NN=Cc1ccc(OC2CCCC2)cc1)NN=Cc1ccc(OC2CCCC2)cc1"
  measurement_type: "Average feed conversion efficiency"
  value_reported: 2.09
- compound: "CCC(CC)Oc1ccc(C=NNC(=N)NN=Cc2ccc(OC(CC)CC)cc2)cc1.Cl"
  measurement_type: "Average feed conversion efficiency"
  value_reported: 2.05

Documented Average feed conversion efficiency of CCCCOc1ccc(C=NNC(=N)NN=Cc2ccc(OCCCC)cc2)cc1.Cl : 2.07

Documented Average feed conversion efficiency of CCC(C)Oc1ccc(C=NNC(=N)NN=Cc2ccc(OC(C)CC)cc2)cc1.Cl (stereo not shown) : 2.08

----------
# Test system: Riemerella anatipestifer
# assay_setup: read-out: Minimum inhibitory concentration (MIC), strain RA-HN-1211-C, in vitro
measurement_type: MIC (µg/mL)
Respond numerically; units are µg/mL and should not be typed.

// solved cases for MIC follow
- compound: "CCC(CC)Oc1ccc(C=NNC(=N)NN=Cc2ccc(OC(CC)CC)cc2)cc1.Cl [IST_007_023]"
  value_reported: 1.56
- compound: "CC(C)Oc1ccc(C=NNC(=N)NN=Cc2ccc(OC(C)C)cc2)cc1.Cl [IST_007_003]"
  value_reported: 1.56
- compound: "COc1ccc(/C=N/NC(=N)N/N=C/c2ccc(OC)cc2)cc1.Cl [IST_007_001]"
  value_reported: 3.13

Then there is this compound:
Documented MIC of Cl.N=C(NN=Cc1ccc(OC2CCCC2)cc1)NN=Cc1ccc(OC2CCCC2)cc1 [IST_007_024] : 0.39

----------
# Tested on: Riemerella anatipestifer
# assay_setup: read-out: Minimum inhibitory concentration (MIC), strain RA-HN-1211-C, in vitro
measurement_type: MIC

Documented MIC of CCOc1ccc(C=NNC(=N)NN=Cc2ccc(OCC)cc2)cc1.Cl [IST_007_002] : > 100 µg/mL

Documented MIC of Cl.N=C(NN=Cc1ccc(OCc2ccccc2)cc1)NN=Cc1ccc(OCc2ccccc2)cc1 [IST_007_025] : > 200 µg/mL

Documented MIC of CCCCCOc1ccc(C=NNC(=N)NN=Cc2ccc(OCCCCC)cc2)cc1.Cl [IST_007_019] : > 200 µg/mL

Documented MIC of CCCCCCCCOc1ccc(C=NNC(=N)NN=Cc2ccc(OCCCCCCCC)cc2)cc1.Cl [IST_007_020] : > 200 µg/mL
